Endpoint: pIC50. System: Dipeptidyl peptidase 4 (Homo sapiens, UniProt P27487). Items follow.
Sequence (P27487 whole entry): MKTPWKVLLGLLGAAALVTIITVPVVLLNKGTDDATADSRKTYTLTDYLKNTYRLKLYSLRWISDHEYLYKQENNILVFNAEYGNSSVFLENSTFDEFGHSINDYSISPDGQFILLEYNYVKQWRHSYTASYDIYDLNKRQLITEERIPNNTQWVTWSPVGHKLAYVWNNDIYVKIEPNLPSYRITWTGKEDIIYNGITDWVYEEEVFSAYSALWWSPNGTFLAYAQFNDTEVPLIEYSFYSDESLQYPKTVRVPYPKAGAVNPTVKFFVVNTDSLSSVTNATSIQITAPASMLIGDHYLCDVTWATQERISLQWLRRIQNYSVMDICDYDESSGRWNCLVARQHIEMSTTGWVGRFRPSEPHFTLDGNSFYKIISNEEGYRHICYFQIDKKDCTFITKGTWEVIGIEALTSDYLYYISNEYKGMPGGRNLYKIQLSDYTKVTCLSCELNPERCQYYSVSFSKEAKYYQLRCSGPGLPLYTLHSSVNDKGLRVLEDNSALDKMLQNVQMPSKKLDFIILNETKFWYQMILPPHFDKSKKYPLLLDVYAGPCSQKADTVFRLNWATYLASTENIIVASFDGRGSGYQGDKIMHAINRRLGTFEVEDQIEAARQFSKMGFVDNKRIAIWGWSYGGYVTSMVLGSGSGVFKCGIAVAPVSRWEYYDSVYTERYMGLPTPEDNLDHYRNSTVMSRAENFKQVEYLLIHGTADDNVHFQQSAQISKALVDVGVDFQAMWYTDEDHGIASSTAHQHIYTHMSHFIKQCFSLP
pIC50: −log10 of the molar value.
observed property: pIC50

Some solved cases for reference:
COc1ccc2c(c1)CCN(C(=O)C[C@H](N)C(=O)N1CCC[C@H]1C#N)C2C(C)(C)C (stereo partly drawn)	7.14
COCC(Cc1ccccc1)NC(=O)C[C@H](N)C(=O)N1CCC[C@H]1C#N (stereo partly drawn)	6.74
N#Cc1ccc[n+](N2CCN(C(=O)C[C@H](N)C(=O)N3CCC[C@H]3C#N)CC2)c1	7.06
COc1cc2c(cc1OC)C(Cc1ccccc1)N(C(=O)C[C@H](N)C(=O)N1CCC[C@H]1C#N)CC2 (stereo partly drawn)	7.01
COc1cc2c(cc1OC)C(C(C)C)N(C(=O)C[C@H](N)C(=O)N1CCC[C@H]1C#N)CC2 (stereo partly drawn)	7.33

a: COc1cc2c(cc1OC)CN(C(=O)C[C@H](N)C(=O)N1CCC[C@H]1C#N)CC2
b: N#C[C@@H]1CCCN1C(=O)[C@@H](N)CC(=O)NCc1ccccc1
c: N#C[C@@H]1CCCN1C(=O)[C@@H](N)CC(=O)N1CCN(C(=O)c2ccccc2)CC1
Query :: # sort list by recorded pIC50, greatest to least List labels; respect the requested ordering.
Result :: a, c, b

---

Target: Dipeptidyl peptidase 2 (Homo sapiens)
observed property: IC50 (µM)
Respond with the bare value in µM.

Query :: // map COc1cc2c(cc1OC)CN(C(=O)C[C@H](N)C(=O)N1CCC[C@H]1C#N)CC2 to recorded IC50 (system: Dipeptidyl peptidase 2 (Homo sapiens))
Result :: 31.3
